- experimental_system: Rat A1 AR (Rattus norvegicus, UniProt P25099)
- Sequence (P25099 whole entry): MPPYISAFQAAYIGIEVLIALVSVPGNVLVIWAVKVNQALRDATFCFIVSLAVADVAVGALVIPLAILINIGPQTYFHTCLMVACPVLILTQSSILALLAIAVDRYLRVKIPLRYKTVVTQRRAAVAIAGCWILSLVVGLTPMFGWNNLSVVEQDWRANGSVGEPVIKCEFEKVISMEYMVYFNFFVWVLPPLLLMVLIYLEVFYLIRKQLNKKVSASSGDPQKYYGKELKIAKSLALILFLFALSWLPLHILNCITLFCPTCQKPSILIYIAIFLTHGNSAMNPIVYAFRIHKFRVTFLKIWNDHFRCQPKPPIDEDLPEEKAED
pKi: −log10 of the molar value.
quantity: pKi

{"columns": ["compound", "experimental_system", "pKi"],
 "data": [
  ["C#CCn1c(=O)c2c(nc(C#Cc3cncn3C)n2C)n(CC)c1=O [drawing 511]", "Rat A1 AR (Rattus norvegicus, UniProt P25099)", 6.34],
  ["C#CCn1c(=O)c2c(nc(C#Cc3cccc(OC)c3)n2C)n(C)c1=O [drawing 456]", "Rat A1 AR (Rattus norvegicus, UniProt P25099)", "< 5.00"],
  ["C#CCn1c(=O)c2c(nc(C#Cc3cccc(OCc4ccoc4)c3)n2C)n(C)c1=O [drawing 479]", "Rat A1 AR (Rattus norvegicus, UniProt P25099)", "< 6.00"],
  ["C#CCn1c(=O)c2c(nc(C#Cc3ccoc3)n2C)n(CC)c1=O", "Rat A1 AR (Rattus norvegicus, UniProt P25099)", "< 6.00"],
  ["C#CCn1c(=O)c2c(nc(C#Cc3cccc(OCCCO)c3)n2C)n(C)c1=O [drawing 468]", "Rat A1 AR (Rattus norvegicus, UniProt P25099)", "≤ 5.00"]
]}

Report pKi for each item below.
1. C#CCn1c(=O)c2c(nc(C#Cc3ccc(OC)c(OC)c3)n2C)n(CCC#N)c1=O [drawing 501]
2. C#CCn1c(=O)c2c(nc(C#Cc3ccc(OCC)c(OCC)c3)n2C)n(CC)c1=O [drawing 497]
3. C#CCn1c(=O)c2c(nc(C#Cc3ccc(OC)c(OC)c3)n2C)n(CCCOP(=O)(O)O)c1=O [drawing 494]
4. C#CCn1c(=O)c2c(nc(C#Cc3ccc(OC)c(OC)c3)n2C)n(C)c1=O [drawing 458]
5. C#CCn1c(=O)c2c(nc(C#Cc3cccc(C)c3)n2C)n(C)c1=O [drawing 460]
6. C#CCn1c(=O)c2c(nc(C#Cc3ccc(OC)c(OC)c3)n2C)n(C[C@H](C)CO)c1=O

["< 6.00", "< 6.00", 6.87, "< 5.00", "< 5.00", 6.84]

Report pKi for each item below.
1. C#CCn1c(=O)c2c(nc(C#Cc3ccc(OC)c(OC)c3)n2C)n(CC2CC2)c1=O [drawing 521]
2. C#CCn1c(=O)c2c(nc(C#Cc3cccc(Br)c3)n2C)n(C)c1=O [drawing 462]
3. C#CCn1c(=O)c2c(nc(C#Cc3cccc(O)c3)n2C)n(C)c1=O [drawing 475]

1: < 6.00; 2: ≤ 5.00; 3: 6.37

Report pKi for each item below.
1. C#CCn1c(=O)c2c(nc(C#Cc3ccc(OC)c(OC)c3)n2CC#C)n(CC)c1=O
2. C#CCn1c(=O)c2c(nc(C#Cc3ccc(OC)c(OC)c3)n2C)n(Cc2ccco2)c1=O [drawing 503]
3. C#CCn1c(=O)c2c(nc(C#Cc3ccc(OC)c(OC)c3)n2C)n(CCC(F)(F)F)c1=O
4. C#CCn1c(=O)c2c(nc(C#Cc3ccc(OC)c(OC)c3)n2C)n(CCOC)c1=O [drawing 498]

1: < 6.00; 2: 7.11; 3: 6.63; 4: < 6.00

----------
- experimental_system: Adenosine A1 (Homo sapiens)
- Sequence (P30542 whole entry): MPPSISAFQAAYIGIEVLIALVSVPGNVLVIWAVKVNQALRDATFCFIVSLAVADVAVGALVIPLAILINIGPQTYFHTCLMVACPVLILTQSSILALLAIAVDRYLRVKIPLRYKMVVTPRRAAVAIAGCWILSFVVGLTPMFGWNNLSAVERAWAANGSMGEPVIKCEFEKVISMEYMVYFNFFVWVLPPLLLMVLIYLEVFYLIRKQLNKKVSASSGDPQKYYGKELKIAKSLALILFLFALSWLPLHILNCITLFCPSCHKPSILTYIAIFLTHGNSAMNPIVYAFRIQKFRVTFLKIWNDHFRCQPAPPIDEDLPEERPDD
- assay_comment: Functional assay (luciferase reporter), inhibition of A1 adenosine receptor
- Format: cell-based
- Design: expressed in transfected cells; host or cells: CHO-DUKX-SRE-Luci-A1-44 (CHO-DUKX, vector pCineo)
- run_parameters: Imax in % of the corresponding antagonist (CPX)
Hi there, I'd appreciate the recorded A1 AR Imax for every entry that follows.

Record excerpt, results attached:
{"columns": ["molecule", "A1 AR Imax"],
 "data": [
  ["C#CCn1c(=O)c2c(nc(C#Cc3cccc(OC)c3)n2CC#C)n(C)c1=O [drawing 621]", "55%"],
  ["C#CCn1c(=O)c2c(nc(C#Cc3cccc(C)c3)n2C)n(CCCO)c1=O [drawing 623]", "102%"]
]}

Here is the next item to consider.
Given the molecule CCCn1c(=O)c2[nH]c(C3CCCC3)nc2n(CCC)c1=O [CPX, 8-Cyclopentyl 1,3-diprophylxanthine, reference compound] and test system Adenosine A1 (Homo sapiens), the measured A1 AR Imax is 100%
